Target: T1, rat NPRA (rat, UniProt P18910 29-1057)
T1 sequence (looked up): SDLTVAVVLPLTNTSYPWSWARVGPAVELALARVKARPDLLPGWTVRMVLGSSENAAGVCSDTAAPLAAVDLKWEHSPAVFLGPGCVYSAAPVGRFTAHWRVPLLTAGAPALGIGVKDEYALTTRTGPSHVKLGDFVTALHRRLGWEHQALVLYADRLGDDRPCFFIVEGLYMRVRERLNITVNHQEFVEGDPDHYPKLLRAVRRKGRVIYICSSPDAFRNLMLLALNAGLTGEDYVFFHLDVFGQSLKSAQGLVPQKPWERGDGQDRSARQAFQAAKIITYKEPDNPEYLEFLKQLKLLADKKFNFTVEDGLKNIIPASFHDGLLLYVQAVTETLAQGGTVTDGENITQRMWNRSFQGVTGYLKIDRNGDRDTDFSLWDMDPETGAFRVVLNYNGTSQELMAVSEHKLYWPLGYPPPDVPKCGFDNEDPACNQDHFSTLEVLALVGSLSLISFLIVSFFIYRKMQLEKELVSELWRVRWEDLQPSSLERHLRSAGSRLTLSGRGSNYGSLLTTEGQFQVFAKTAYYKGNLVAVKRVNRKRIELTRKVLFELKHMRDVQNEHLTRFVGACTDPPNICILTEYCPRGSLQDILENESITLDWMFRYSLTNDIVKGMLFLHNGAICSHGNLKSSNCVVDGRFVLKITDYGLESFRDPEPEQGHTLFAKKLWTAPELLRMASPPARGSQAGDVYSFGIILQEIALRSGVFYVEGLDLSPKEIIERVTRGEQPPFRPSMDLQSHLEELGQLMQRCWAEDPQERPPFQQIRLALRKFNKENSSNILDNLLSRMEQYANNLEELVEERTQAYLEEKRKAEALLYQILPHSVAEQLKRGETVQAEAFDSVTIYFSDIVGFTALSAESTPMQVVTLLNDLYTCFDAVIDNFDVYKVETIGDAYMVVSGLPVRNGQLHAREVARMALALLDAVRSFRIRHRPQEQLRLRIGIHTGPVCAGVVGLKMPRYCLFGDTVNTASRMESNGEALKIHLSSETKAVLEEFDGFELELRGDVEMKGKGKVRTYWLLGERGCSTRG
Assay: cell-based or functional assay
Numbered stars: 1 amine (or outer) side, 2 acyl side, 3 side chain; on linkers, the order of the positions; unused ones are H or OH. Bridge positions count the residues as written; N and C are the ends. Square brackets hold non-standard residues; d marks the D form. * marks the point of attachment. C20 diacid = O=C(O)CCCCCCCCCCCCCCCCCCC(=O)*; γGlu = O=C(O)[C@H](CCC(=O)[*:2])N[*:1]; 4Pal = N[C@@H](Cc1ccncc1)C(=O)O
Give cGMP Assay (EC50, pM) w/Casein for every item shown.

Examples with answers:
{"columns": ["binder", "cGMP Assay (EC50, pM) w/Casein"],
 "data": [
  ["{C20 diacid}-[γGlu]EKEKEKGS[4Pal]KRSSCFGGKIDRIGHQSGLGCPSFRHGPSSGAPPPS-NH2 (disulfide 15-31) [Example 33]", "383 pM"],
  ["SXRRSSCFGGRIDRIGHQSGLGCPSFRHGGPPSXKPPPK (HOOC-(CH2)18-CO-(γGlu)-EKEKEKG-PEG24-S-4Pal-RRSS[CFGGRIDRIGHQSGLGC]PSFRHGGPPS-Aib-KPPPK-NH2; thioacetal linkage between the bracketed Cys) [Example 84]", "24600 pM"]
]}

Next up:
Q: Answer with the recorded cGMP Assay (EC50, pM) w/Casein for the binder listed here: XEKEKEKGEKPRSSCFGGRIDRIGHYSGLGCPSFRHGGPSSGAPPPS (HOOC-(CH2)18-CO-(γGlu)-EKEKEKGEKPRSS[CFGGRIDRIGHYSGLGC]PSFRHGGPSSGAPPPS-NH2; thioacetal linkage between the bracketed Cys) [Example 57]
A: 9500 pM

Data origin: patent US20240174727A1
